What concentration at 1 h was measured for each of the following?
METHOD: Drug distribution in C57BL/6 mouse liver 10 mg/kg, po and measured at 1 hrs post dose by LC-MS/MS analysis
Type: ADME, organism-based
PARTICULARS: read-out: Ct
Answers are plain numbers, in µM.

A selection of reference data follows.
O=C(Nc1ccc(N2CCC3(CC2)CC(C(=O)O)C3)nc1)c1nnc(Nc2ccc(F)c(F)c2)o1 ... 153
O=C(O)CC1CCC2(CC1)CCC(c1ccc(NC(=O)c3nnc(Nc4ccc(F)c(F)c4)o3)cn1)CC2 (centres undefined) ... 74
O=C(O)CC1CCC2(CC1)CCN(c1ccc(NC(=O)c3nnc(Nc4ccc(F)c(F)c4)o3)cn1)CC2 ... 39.2

Problem: What value of concentration at 1 h has been reported for the following compound? O=C(Nc1ccc(C2CCC3(CC2)CC(C(=O)O)C3)cc1)c1nnc(Nc2ccc(F)c(F)c2)o1 (centres undefined)
Result: 142

----------
METHOD: Clearance in Wistar rat at 3 mg/kg, iv or 10 mg/kg, po and measured up to 24 hrs by LC-MS/MS analysis
Type: ADME, organism-based
PARTICULARS: in vivo
READOUT_KIND: clearance (mL/min/kg)
Give bare numbers, in mL/min/kg.

A selection of reference data follows.
O=C(Nc1ccc(N2CCC3(CC2)CC(C(=O)O)C3)nc1)c1nnc(Nc2ccc(F)c(F)c2)o1 ... 2.3
O=C(Nc1ccc(C2CCC3(CC2)CC(C(=O)O)C3)cc1)c1nnc(Nc2ccc(F)c(F)c2)o1 (centres undefined) ... 6.2
O=C(O)CC1CCC2(CC1)CCN(c1ccc(NC(=O)c3nnc(Nc4ccc(F)c(F)c4)o3)cn1)CC2 ... 3.3

Problem: What value of clearance has been reported for the following compound? O=C(O)CC1CCC2(CC1)CCC(c1ccc(NC(=O)c3nnc(Nc4ccc(F)c(F)c4)o3)cn1)CC2 (centres undefined)
Result: 1.2

----------
METHOD: Drug distribution in C57BL/6 mouse brain 10 mg/kg, po and measured at 1 hrs post dose by LC-MS/MS analysis
Assay type: ADME, organism-based
PARTICULARS: read-out: Ct
READOUT_KIND: concentration at 1 h (nM)
Give bare numbers, in nM.

A selection of reference data follows.
O=C(Nc1ccc(C2CCC3(CC2)CC(C(=O)O)C3)cc1)c1nnc(Nc2ccc(F)c(F)c2)o1 (centres undefined) ... 20
O=C(Nc1ccc(N2CCC3(CC2)CC(C(=O)O)C3)nc1)c1nnc(Nc2ccc(F)c(F)c2)o1 ... 360
O=C(O)CC1CCC2(CC1)CCN(c1ccc(NC(=O)c3nnc(Nc4ccc(F)c(F)c4)o3)cn1)CC2 ... 10

From here, focus on the item given below.
Problem: What value of concentration at 1 h has been reported for the following compound? O=C(O)CC1CCC2(CC1)CCC(c1ccc(NC(=O)c3nnc(Nc4ccc(F)c(F)c4)o3)cn1)CC2 (centres undefined)
Result: 20

----------
What concentration at 2 h was measured for each of the following?
METHOD: Drug distribution in C57BL/6 mouse skeletal muscle 10 mg/kg, po and measured at 2 hrs post dose by LC-MS/MS analysis
Assay type: ADME, organism-based, Skeletal muscle tissue
PARTICULARS: read-out: Ct
Please answer using the number first and the unit second.

O=C(Nc1ccc(N2CCC3(CC2)CC(C(=O)O)C3)nc1)c1nnc(Nc2ccc(F)c(F)c2)o1 ... 0.18 µM

Could you tell me concentration at 2 h for each of these compounds? They are listed below.
1. O=C(Nc1ccc(C2CCC3(CC2)CC(C(=O)O)C3)cc1)c1nnc(Nc2ccc(F)c(F)c2)o1 (centres undefined)
2. O=C(O)CC1CCC2(CC1)CCC(c1ccc(NC(=O)c3nnc(Nc4ccc(F)c(F)c4)o3)cn1)CC2 (centres undefined)
3. O=C(O)CC1CCC2(CC1)CCN(c1ccc(NC(=O)c3nnc(Nc4ccc(F)c(F)c4)o3)cn1)CC2

Result:
1. 0.06 µM
2. 0.29 µM
3. 0.05 µM

----------
MEASURED_ON: Diacylglycerol O-acyltransferase 1 (Homo sapiens, UniProt O75907)
Sequence (O75907 whole entry): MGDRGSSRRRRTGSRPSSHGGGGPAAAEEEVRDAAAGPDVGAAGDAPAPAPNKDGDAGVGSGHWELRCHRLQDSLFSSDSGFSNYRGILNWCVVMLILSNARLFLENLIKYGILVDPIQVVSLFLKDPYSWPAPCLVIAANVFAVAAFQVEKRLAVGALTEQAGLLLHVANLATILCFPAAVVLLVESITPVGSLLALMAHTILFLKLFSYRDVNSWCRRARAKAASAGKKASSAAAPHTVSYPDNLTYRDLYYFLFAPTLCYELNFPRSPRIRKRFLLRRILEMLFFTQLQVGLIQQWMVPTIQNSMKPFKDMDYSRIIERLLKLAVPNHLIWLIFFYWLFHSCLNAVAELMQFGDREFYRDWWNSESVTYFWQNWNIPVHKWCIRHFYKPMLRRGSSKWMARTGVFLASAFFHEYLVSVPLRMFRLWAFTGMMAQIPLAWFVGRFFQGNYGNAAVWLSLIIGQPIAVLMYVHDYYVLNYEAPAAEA
METHOD: Inhibition of human DGAT1 in serum starved HEK293 cells assessed as inhibition of triglyceride synthesis incubated for 20 mins followed by 13C-addition of 13C-oleic acid pre-complexed with BSA for 120 mins by LC-MS-based mass spectrophotometric analysis
Format: cell-based
What IC50 was measured for each of the following?
Give bare numbers, in nM.

A selection of reference data follows.
O=C(O)CC1CCC2(CC1)CCC(c1ccc(NC(=O)c3nnc(Nc4ccc(F)c(F)c4)o3)cc1)CC2 (stereo in doubt; 8a) ... 24
O=C(O)CC1CCC2(CC1)CCC(c1ccc(NC(=O)c3nnc(Nc4ccc(F)c(F)c4)o3)cc1)CC2 (stereo in doubt; 8b) ... 23
O=C(O)C[C@H]1CC[C@H](c2ccc(-c3ccc(Nc4ccc(C(F)(F)F)nc4)cn3)cc2)CC1 [PRADIGASTAT] ... 66
O=C(O)CC1CCC2(CC1)CCC(c1ccc(NC(=O)c3nnc(Nc4ccc(F)c(F)c4)o3)cn1)CC2 (stereo not given) ... 16

From here, focus on the item given below.
Problem: What value of IC50 has been reported for the following molecule? O=C(O)CC1CCC2(CC1)CCC(c1ccc(NC(=O)c3nnc(Nc4ccc(F)c(F)c4)o3)cc1)CC2 (stereo in doubt; 8)
Result: 14.6

----------
METHOD: Half life in C57BL/6 mouse at 5 mg/kg, iv or 10 mg/kg, po and measured up to 24 hrs by LC-MS/MS analysis
Format: ADME, organism-based
PARTICULARS: in vivo
READOUT_KIND: half-life (h)
Answers are plain numbers, in h.

Problem: What value of half-life has been reported for the following compound? O=C(Nc1ccc(N2CCC3(CC2)CC(C(=O)O)C3)nc1)c1nnc(Nc2ccc(F)c(F)c2)o1
Result: 1

----------
What inhibition at 25 µM was measured for each of the following?
MEASURED_ON: CYP2D6 (Homo sapiens, UniProt P10635)
Sequence (P10635 whole entry): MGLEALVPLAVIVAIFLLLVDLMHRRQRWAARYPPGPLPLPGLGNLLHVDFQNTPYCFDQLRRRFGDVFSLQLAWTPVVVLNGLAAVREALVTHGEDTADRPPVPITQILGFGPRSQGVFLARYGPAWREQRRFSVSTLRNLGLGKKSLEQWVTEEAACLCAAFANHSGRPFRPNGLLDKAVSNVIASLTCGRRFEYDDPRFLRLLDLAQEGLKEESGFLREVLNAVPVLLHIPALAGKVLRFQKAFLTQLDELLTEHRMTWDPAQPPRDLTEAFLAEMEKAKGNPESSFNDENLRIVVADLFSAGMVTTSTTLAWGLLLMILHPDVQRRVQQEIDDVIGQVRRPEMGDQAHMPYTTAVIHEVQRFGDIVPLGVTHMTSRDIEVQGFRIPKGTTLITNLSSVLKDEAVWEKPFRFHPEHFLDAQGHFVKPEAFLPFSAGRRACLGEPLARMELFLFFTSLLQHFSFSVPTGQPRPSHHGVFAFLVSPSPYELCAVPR
METHOD: Inhibition of recombinant human CYP2D6 at 25 uM by fluorescence plate reader analysis
Assay type: ADME
Numbers only, in %.

Could you tell me inhibition at 25 µM for each of these compounds? They are listed below.
1. O=C([O-])CC1CCC2(CC1)CCC(c1ccc(NC(=O)c3nnc(Nc4ccc(F)c(F)c4)o3)cn1)CC2.[Na+] (stereo not drawn)
2. O=C(Nc1ccc(C2CCC3(CC2)CC(C(=O)O)C3)cc1)c1nnc(Nc2ccc(F)c(F)c2)o1 (stereo not drawn)
3. O=C([O-])CC1CCC2(CC1)CCC(c1ccc(NC(=O)c3nnc(Nc4ccc(F)c(F)c4)o3)cc1)CC2.[Na+] (stereo not drawn)

Result:
5
10
8

----------
METHOD: Drug distribution in C57BL/6 mouse liver 10 mg/kg, po and measured at 2 hrs post dose by LC-MS/MS analysis
Assay type: ADME, organism-based
PARTICULARS: read-out: Ct
READOUT_KIND: concentration at 2 h (µM)
Give bare numbers, in µM.

O=C(O)CC1CCC2(CC1)CCN(c1ccc(NC(=O)c3nnc(Nc4ccc(F)c(F)c4)o3)cn1)CC2 ... 54.9
O=C(Nc1ccc(N2CCC3(CC2)CC(C(=O)O)C3)nc1)c1nnc(Nc2ccc(F)c(F)c2)o1 ... 96
O=C(Nc1ccc(C2CCC3(CC2)CC(C(=O)O)C3)cc1)c1nnc(Nc2ccc(F)c(F)c2)o1 (centres undefined) ... 71.6

From here, focus on the item given below.
Problem: What value of concentration at 2 h has been reported for the following molecule? O=C(O)CC1CCC2(CC1)CCC(c1ccc(NC(=O)c3nnc(Nc4ccc(F)c(F)c4)o3)cn1)CC2 (centres undefined)
Result: 73

----------
What bioavailability was measured for each of the following?
METHOD: Oral bioavailability in Wistar rat at 10 mg/kg or 3 mg/kg, iv and measured up to 24 hrs by LC-MS/MS analysis
Type: ADME, organism-based
PARTICULARS: in vivo
Numbers only, in %.

A selection of reference data follows.
O=C(O)CC1CCC2(CC1)CCN(c1ccc(NC(=O)c3nnc(Nc4ccc(F)c(F)c4)o3)cn1)CC2 ... 38
O=C(Nc1ccc(N2CCC3(CC2)CC(C(=O)O)C3)nc1)c1nnc(Nc2ccc(F)c(F)c2)o1 ... 92
O=C(Nc1ccc(C2CCC3(CC2)CC(C(=O)O)C3)cc1)c1nnc(Nc2ccc(F)c(F)c2)o1 (centres undefined) ... 100

From here, focus on the item given below.
Problem: What value of bioavailability has been reported for the following compound? O=C(O)CC1CCC2(CC1)CCC(c1ccc(NC(=O)c3nnc(Nc4ccc(F)c(F)c4)o3)cn1)CC2 (centres undefined)
Result: 9

----------
METHOD: Solubility of compound in PBS at pH 7.4 incubated for 4 hrs under shaking condition by UV absorbance based analysis
Type: physicochemical
READOUT_KIND: solubility at 4 h (µM)
Numbers only, in µM.

O=C([O-])CC1CCC2(CC1)CCC(c1ccc(NC(=O)c3nnc(Nc4ccc(F)c(F)c4)o3)cc1)CC2.[Na+] (centres undefined) ... 14

Could you tell me solubility at 4 h for each of these molecules? They are listed below.
1. O=C(Nc1ccc(N2CCC3(CC2)CC(C(=O)[O-])C3)nc1)c1nnc(Nc2ccc(F)c(F)c2)o1.[Na+]
2. O=C([O-])CC1CCC2(CC1)CCN(c1ccc(NC(=O)c3nnc(Nc4ccc(F)c(F)c4)o3)cn1)CC2.[Na+]

Result:
1. 1060
2. 37
